Just for reference, PubChem BioAssay (Tox21) is where these values come from.

# run description: A CellTox Green Cytotoxicity Assay to monitor cytotoxicity in HEK293 cells - 40 hour (AID 1224871); note: % is set by controls: 0 for no effect and ±100 for the full control effect; nearly all actives have a fitted effect of over 45% in size
# condition context: CellTox Green fluorescence; series mostly up to 76.8 µM
Records with an inconclusive call do not appear. Calls of active or inactive are those of the source. Calls come from the whole dose curve; as a rule, active = well fitted activation curve with a large enough effect in the repeat runs; inconclusive = weak or mixed curves; inactive = flat fitted curve, though single readings scatter.
measure: cytotoxicity increase

Known results for compounds:
- compound: "CC(C)=CCC/C(C)=C/COC=O"
  measure: "cytotoxicity increase"
  observed: "inactive"
- compound: "C=Cc1ccc(C(C)(C)C)cc1"
  measure: "cytotoxicity increase"
  observed: "inactive"
- compound: "Cc1ccnc(N)c1"
  measure: "cytotoxicity increase"
  observed: "inactive"
- compound: "C=CC/C=C/C"
  measure: "cytotoxicity increase"
  observed: "inactive"
- compound: "CCC(C)C(C)=O (centres undefined)"
  measure: "cytotoxicity increase"
  observed: "inactive"
- compound: "O=C[O][Al]([O]C=O)[O]C=O"
  measure: "cytotoxicity increase"
  observed: "inactive"
- compound: "CCCCOC(=O)C(C)O (centres undefined)"
  measure: "cytotoxicity increase"
  observed: "inactive"
- compound: "OC[C@@H](O)C(O)[C@@H](O)CO (some centres undefined)"
  measure: "cytotoxicity increase"
  observed: "inactive"

I need cytotoxicity increase for every entry listed below, if you could help.
1. CC(O)CC(C)O (centres undefined)
2. COS(=O)(=O)O
3. Cc1cc(-c2ccccc2)nnc1NCCN1CCOCC1
4. CC/C=C\CCOC(=O)c1ccccc1O
5. CCCCCCC1(C)CCC(=O)O1 (centres undefined)
6. OC[C@H]1O[C@@H](O[C@@H]2[C@@H](CO)O[C@](O)(CO)[C@H]2O)[C@H](O)[C@@H](O)[C@H]1O
7. COc1c2occc2c(OC)c2c(=O)cc(C)oc12
8. CO[C@@]1(NC(=O)Cc2cccs2)C(=O)N2C(C(=O)O)=C(COC(N)=O)CS[C@@H]21

inactive
inactive
inactive
inactive
inactive
inactive
inactive
inactive

I need cytotoxicity increase for every entry listed below, if you could help.
1. CC1=NN(c2ccc(S(=O)(=O)O)cc2)C(=O)C1
2. O=Cc1cc2ccccc2o1
3. CC(=O)CCc1ccc(OC(C)=O)cc1

1: inactive; 2: inactive; 3: inactive

* * *

# system name: Voltage-gated inwardly rectifying potassium channel KCNH2 (Homo sapiens)
# run description: Human Ether-a-go-go-Related Gene (hERG) channel small molecule antagonists: fluorescence cell-based qHTS assay (AID 1671200);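 note: hERG-expressing U2OS cells given a thallium stimulus after FluxOR II dye loading; % is set by controls: 0 for no effect and ±100 for the full control effect; nearly all actives have a fitted effect of over 50% in size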
# condition context: hERG-U2OS cells, FluxOR thallium flux fluorescence; series mostly up to 76.8 µM
Results filed as inconclusive are left out. The source made the active and inactive calls. The call rests on the fitted dose curve; in most records, active means well fitted inhibition curve with a large enough effect in the repeat runs; inconclusive means weak or mixed curves; inactive means flat fitted curve, though single readings scatter.
measure: activity change, negative = inhibition

- chemical string: "COP(=O)(O)OP(=O)(O)OC"
  activity change, negative = inhibition: "inactive"
- chemical string: "CC(C)OC(=O)CCC(=O)OC(C)C"
  activity change, negative = inhibition: "inactive"
- chemical string: "CC(=O)OCC(=O)Nc1cc(C#N)cc(NC(=O)COC(C)=O)c1Cl"
  activity change, negative = inhibition: "inactive"
- chemical string: "CCCCCC/C=C/C(=O)OC"
  activity change, negative = inhibition: "inactive"
- chemical string: "Nc1nc(-c2ccccc2)c(Br)c(=O)[nH]1"
  activity change, negative = inhibition: "inactive"

I need activity change, negative = inhibition for every entry listed below, if you could help.
1. CCn1cc(C(=O)O)c(=O)c2cnc(N3CCCC3)nc21
2. [O-][n+]1cccc(/C(Cl)=N/OC[C@@H](O)CN2CCCCC2)c1

["-5.15% [at 6.97 µM] (inactive)", "inactive"]

* * *

# system name: Estrogen receptor (Homo sapiens) (UniProt P03372)
# Sequence (P03372 whole entry, looked up): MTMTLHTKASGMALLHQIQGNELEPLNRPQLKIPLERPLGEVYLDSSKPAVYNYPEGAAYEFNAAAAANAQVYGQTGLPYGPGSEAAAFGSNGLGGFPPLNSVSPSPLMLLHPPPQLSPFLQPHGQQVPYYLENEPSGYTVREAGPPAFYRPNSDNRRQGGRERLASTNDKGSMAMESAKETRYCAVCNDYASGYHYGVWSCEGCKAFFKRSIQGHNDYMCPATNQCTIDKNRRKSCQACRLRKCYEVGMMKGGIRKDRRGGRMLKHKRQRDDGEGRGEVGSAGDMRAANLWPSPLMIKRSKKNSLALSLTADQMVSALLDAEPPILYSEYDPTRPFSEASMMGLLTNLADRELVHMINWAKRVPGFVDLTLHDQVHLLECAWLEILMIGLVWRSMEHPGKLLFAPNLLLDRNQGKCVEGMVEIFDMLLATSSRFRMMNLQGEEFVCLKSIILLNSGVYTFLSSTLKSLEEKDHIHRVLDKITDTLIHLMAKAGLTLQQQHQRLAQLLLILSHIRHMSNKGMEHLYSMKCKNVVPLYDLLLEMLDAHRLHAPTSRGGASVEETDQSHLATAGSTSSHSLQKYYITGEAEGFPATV
# run description: qHTS assay to identify small molecule agonists of the estrogen receptor alpha (ER-alpha) signaling pathway using the BG1 cell line (AID 743079); note: nearly all actives have a fitted effect of over 20% in size; for activation: % is set by controls: 0 for no effect and ±100 for the full control effect
# condition context: BG1Luc4E2 cells, ERE-luciferase agonist, 22 h; series mostly up to 70.3 µM
Inconclusive results are not listed. The source made the active and inactive calls. Calls follow the shape of the dose curve; as a rule, active = well fitted activation curve with a large enough effect in the repeat runs; inconclusive = weak or mixed curves, or effect the other way; inactive = no such curve, though single readings can be large or run the other way.
Mark one answer only. Choices: active, inactive

Solved entries:
- compound: "CCC(C)C(C)=O (centres undefined)"
  group: "active"
- compound: "CCOC(=O)CC1(C)OCC(C)O1 (centres undefined)"
  group: "inactive"

Dear colleague, could you share the recorded outcome for CCC/C=C(\C=O)CC when you have a moment?
inactive

Dear colleague, could you share the recorded outcome for COc1nc(N)nc2nc[nH]c12 when you have a moment?
inactive

* * *

# system name: Cytochrome P450 2D6 (Homo sapiens)
# run description: Cytochrome P450 Family 2 Subfamily D Member 6 (CYP2D6) small molecule antagonists: luciferase reporter qHTS assay (AID 1671196); note: nearly all actives have a fitted effect of over 50% in size
# condition context: P450-Glo CYP2D6 enzyme assay, luciferin luminescence, 1 h; series mostly up to 115 µM
Records with an inconclusive call do not appear. Activity calls are given as the source filed them. Calls come from the whole dose curve; as a rule, active = well fitted inhibition curve with a large enough effect in the repeat runs; inconclusive = weak or mixed curves; inactive = no such curve, though single readings can be large or run the other way. Where a SMILES comes first, the peptide text is derived from it.
Mark one answer only. Choices: TRUE (active), FALSE (inactive)

Solved entries:
- molecule: "CC(=O)N[C@@H](CO)C(=O)N[C@@H](CC(=O)O)C(=O)N[C@@H](CCCCN)C(=O)N1CCC[C@H]1C(=O)O (Ac-SDKP-OH)"
  group: "FALSE"
- molecule: "O=C1OCCO1"
  group: "FALSE"
- molecule: "CCCCCc1cccc(=O)o1"
  group: "FALSE"
- molecule: "CC(C)NC(=O)c1ccc(C=O)cc1"
  group: "FALSE"

Dear colleague, could you share the recorded outcome for CC(C)C[C@@H]1[C@H](c2ccccc2)OC(=O)N1CCCN1CCCCCC1 when you have a moment?
TRUE

Dear colleague, could you share the recorded outcome for CCCCCCC1(C)CCC(=O)O1 (centres undefined) when you have a moment?
FALSE

Dear colleague, could you share the recorded outcome for C=CCCCC when you have a moment?
FALSE

Dear colleague, could you share the recorded outcome for CC(Oc1cc(Cl)ccc1Cl)C(=O)O (centres undefined) when you have a moment?
FALSE

Dear colleague, could you share the recorded outcome for CC(C)[C@H]1CC[C@H](C)C[C@@H]1O when you have a moment?
FALSE

Dear colleague, could you share the recorded outcome for CCCCOC(=O)C(C)O (centres undefined) when you have a moment?
FALSE

Dear colleague, could you share the recorded outcome for C=CCCCCCCCCC(=O)OCCCC when you have a moment?
FALSE

Dear colleague, could you share the recorded outcome for CC12CCC(C1)C(C)(C)C2O (centres undefined) when you have a moment?
FALSE

Dear colleague, could you share the recorded outcome for O=C(O)CNC(=O)CNC(=O)CNC(=O)CSC(=O)c1ccccc1 when you have a moment?
FALSE

Dear colleague, could you share the recorded outcome for C/C=C(\C)C(=O)OCCc1ccccc1 when you have a moment?
FALSE

* * *

# run description: qHTS assay to identify small molecule agonists of the sonic hedgehog signaling (Shh) pathway (AID 1259368);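 note: NIH/3T3-derived 3T3Gli1-Luc cells carrying a stable Gli1-driven firefly luciferase reporter; % is set by controls: 0 for no effect and ±100 for the full control effect; nearly all actives have a fitted effect of over 15% in size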
# condition context: NIH/3T3 Gli1-Luc reporter, luciferase, 24 h, stronger effect = higher value; series mostly up to 92.4 µM
The source made the active and inactive calls. Calls follow the shape of the full dose curve.
measure: activity change

- chemical string: "O=Cc1ccccc1Cl"
  measure: "activity change"
  observed: "inactive"
- chemical string: "C=CCN1C[C@H](C(=O)N(CCCN(C)C)C(=O)NCC)C[C@@H]2c3cccc4[nH]cc(c34)C[C@H]21"
  measure: "activity change"
  observed: "inactive"
- chemical string: "COc1cc(OC)nc(O[C@H](C(=O)O)C(OC)(c2ccccc2)c2ccccc2)n1"
  measure: "activity change"
  observed: "inactive"
- chemical string: "CC(=O)OCC(=O)Nc1cc(C#N)cc(NC(=O)COC(C)=O)c1Cl"
  measure: "activity change"
  observed: "inactive"

As a next step, examine the compound that follows.
Tell me the measured activity change of CC(C)C[C@@H]1[C@H](c2ccccc2)OC(=O)N1CCCN1CCCCCC1 , please.
inactive

* * *

# system name: Progesterone receptor (Homo sapiens)
# run description: qHTS assay to identify small molecule agonists of the progesterone receptor (PR) signaling pathway (AID 1346784); note: % is set by controls: 0 for no effect and ±100 for the full control effect; nearly all actives have a fitted effect of over 30% in size
# condition context: PR-UAS-bla HEK293T, beta-lactamase FRET ratio, 16 h; series mostly up to 92.4 µM
Inconclusive results are not listed. Calls of active or inactive are those of the source. The call rests on the fitted dose curve. Positions of bridges follow the written chain, without caps; N, C: chain ends. Non-standard residues stand in square brackets, D forms with d. Residues, ends and D or L forms follow the SMILES beside them. hArg = N=C(N)NCCCC[C@H](N)C(=O)O; Mpa = O=C(O)CCS
measure: activation

Known results for molecules:
- molecule: "CCn1cc(C(=O)O)c(=O)c2cnc(N3CCCC3)nc21"
  activation: "0.947% [at 8.39 µM] (inactive)"
- molecule: "CC(=O)C(C)O (stereo unspecified)"
  activation: "inactive"
- molecule: "C=CCCCCCCCC"
  activation: "inactive"
- molecule: "CC(N)CCCC(C)(C)O (stereo unspecified)"
  activation: "inactive"
- molecule: "CN(C)CCN(C)CCO"
  activation: "inactive"

I need activation for every entry listed below, if you could help.
1. CN(C)CCCO[C@@H]1[C@H]2OC(C)(C)O[C@H]2O[C@@H]1C(O)CO (stereo partly specified)
2. c1ccc(B(c2ccccc2)c2ccccc2)cc1
3. NC(=O)[C@@H]1CSSCCC(=O)N[C@@H](CCCCN=C(N)N)C(=O)NCC(=O)N[C@@H](CC(=O)O)C(=O)N[C@@H](Cc2c[nH]c3ccccc23)C(=O)N2CCC[C@H]2C(=O)N1 ([Mpa][hArg]GDWPC-NH2; disulfide 1-7)
4. CC(=O)OC1CCCCC1C(C)(C)C (stereo unspecified)
5. Cc1cc(-c2ccccc2)nnc1NCCN1CCOCC1
6. CC1=C(C(=O)O)N2C(=O)[C@@H](NC(=O)[C@H](N)C3=CCC=CC3)[C@H]2SC1

["inactive", "inactive", "inactive", "inactive", "inactive", "inactive"]
